Items are presented alongside their recorded HEK-IL-13 [nM] (IC50, STAT6 reporter).
biological target: recombinant human IL-13 (human, UniProt P35225 35-146); test: cell-based or functional assay
Sequence (P35225 35-146 limits assumed): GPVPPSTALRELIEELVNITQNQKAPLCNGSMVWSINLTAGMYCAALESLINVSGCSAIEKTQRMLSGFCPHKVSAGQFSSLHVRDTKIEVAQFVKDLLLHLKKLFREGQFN
Give the value in nM but do not write nM after it.

1. BDG38.099 (antibody, V domains shown) VH: QMQLVESGGGVVQPGRSLRLSCAASGFEFRTYGMHWVRQAPGKGLEWVGVIWYDGSNTHYADSVKGRFTITRDNSKNTLNLQMNSLRAEDTAVYYCVRAPQWYLTAEAFDLWGQGTMVTVSS VL: SYILTQPPSVSVAPGETARITCGGNLIGARLVHWYQQKPGQAPVLVIYDDSDRPSRIPERFSGSNIGNTATLTIEDVEEGDEADYYCQVWDYSSDSYVFGGGTKLTVL :: 0.0601

Prompt line: Record request: HEK-IL-13 [nM] (IC50, STAT6 reporter) value, item BDG38.097 (antibody, V domains shown) VH: QMQLVESGGGVVQPGRSLRLSCAASGFEFRTYGMHWVRQAPGKGLEWLGVIWYDGSATHYADSVKGRFTITRDNSKNTLNLQMNSLRAEDTAVYYCVRAPQWYLTAEAFDLWGQGTMVTVSS VL: SYILTQPPSVSVAPGETATITCGGNLIGARLVHWYQQKPGQAPVLVIYDDSDRPSRIPERFSGSNIGNTATLTIERVEEGDEADYYCQVWDYYSDHYVFGGGTKLTVL
Response line: 0.0464

Prompt line: Consider the binder BDG38.132 (antibody, V domains shown, IgG1) VH: QMQLVESGGGVVQPGRSLRLSCAASGFEFRTYGMHWVRQAPGKGLEWVGVIWDDGSNTHYADSVKGRFTITRDNSKNTLNLQMNSLRAEDTAVYYCVRAPQWYLTAEAFDLWGQGTMVTVSS VL: SYILTQPPSVSVAPGETATITCGGNLIGARLVHWYQQKPGQAPVLVIYDDSDRPSRIPERFSGSNIGNTATLTISRVEAGDEADYYCQVWDYSSDHMVFGGGTKLTVL and give its measured HEK-IL-13 [nM] (IC50, STAT6 reporter).
Response line: 0.0899
